# System: HT-29
# assay: Cytotoxic activity against HT-29 colon cancer cell line
# Type: functional
# condition-info: Homo sapiens
readout-label: GI50 (nM)
Report the figure in nM without appending any unit label.

Before answering, review these 3 worked examples.
COc1cc(OC)cc(N(C)Cc2cnc3nc(N)nc(N)c3c2C)c1
5840
COc1ccc(NCc2cnc3nc(N)nc(N)c3c2C)c2ccccc12
72.3
COc1ccc(OC)c(N(C)Cc2cnc3nc(N)nc(N)c3c2C)c1
3220

Turning now to a further record.
Identify GI50 associated with the compound COc1ccc(NCc2cnc3nc(N)nc(N)c3c2C)c(OC)c1
2380

====

In this section, each of the molecules is paired with its reported GI50.
# Tested on: SK-MEL-5
# assay: Cytotoxic activity against SK-MEL-5 Melanoma cell line
# Assay type: functional
# condition-info: Homo sapiens
Report the figure in nM without appending any unit label.

Before answering, review these 3 worked examples.
COc1ccc(OC)c(N(C)Cc2cnc3nc(N)nc(N)c3c2C)c1
1560
COc1cc(OC)cc(N(C)Cc2cnc3nc(N)nc(N)c3c2C)c1
596
COc1ccc(NCc2cnc3nc(N)nc(N)c3c2C)c(OC)c1
1150

Turning now to a further record.
Identify GI50 associated with the molecule COc1ccc(NCc2cnc3nc(N)nc(N)c3c2C)c2ccccc12
57.8

====

In this section, each of the molecules is paired with its reported IC50.
# experimental-system: Bifunctional dihydrofolate reductase-thymidylate synthase (Toxoplasma gondii, UniProt Q07422)
# Sequence (Q07422 whole entry): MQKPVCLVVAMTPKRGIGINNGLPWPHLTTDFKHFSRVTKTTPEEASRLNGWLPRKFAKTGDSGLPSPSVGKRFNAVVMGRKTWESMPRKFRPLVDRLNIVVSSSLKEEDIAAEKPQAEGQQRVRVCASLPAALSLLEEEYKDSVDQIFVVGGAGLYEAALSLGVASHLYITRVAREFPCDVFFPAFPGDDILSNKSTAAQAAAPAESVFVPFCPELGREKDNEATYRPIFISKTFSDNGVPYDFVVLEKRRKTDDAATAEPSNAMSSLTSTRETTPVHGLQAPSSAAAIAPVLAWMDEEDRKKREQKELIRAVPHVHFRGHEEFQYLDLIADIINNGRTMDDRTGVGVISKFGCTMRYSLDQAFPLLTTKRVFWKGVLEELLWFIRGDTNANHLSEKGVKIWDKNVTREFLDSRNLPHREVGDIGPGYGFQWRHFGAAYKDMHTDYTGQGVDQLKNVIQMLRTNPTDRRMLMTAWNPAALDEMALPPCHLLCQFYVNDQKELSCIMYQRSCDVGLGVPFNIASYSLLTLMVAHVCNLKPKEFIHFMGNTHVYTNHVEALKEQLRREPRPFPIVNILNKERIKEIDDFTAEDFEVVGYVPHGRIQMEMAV
Report the figure in nM without appending any unit label.

Identify IC50 associated with the molecule COc1ccc(N(C)Cc2cnc3nc(N)nc(N)c3c2C)cc1OC
29

Identify IC50 associated with the molecule CCN(Cc1cnc2nc(N)nc(N)c2c1C)c1cc(OC)c(OC)c(OC)c1
7.7

Identify IC50 associated with the molecule COc1cc(NCc2cnc3nc(N)nc(N)c3c2C)cc(OC)c1
4.8

Identify IC50 associated with the molecule COc1ccc(OC)c(N(C)Cc2cnc3nc(N)nc(N)c3c2C)c1
30.1

====

In this section, each of the compounds is paired with its reported GI50.
# System: HCT-116
# assay: Cytotoxic activity against HCT116 colon cancer cell line
# Format: functional
# condition-info: Homo sapiens
Report the figure in nM without appending any unit label.

Before answering, review these 3 worked examples.
COc1cc(OC)cc(N(C)Cc2cnc3nc(N)nc(N)c3c2C)c1
410
COc1ccc(OC)c(N(C)Cc2cnc3nc(N)nc(N)c3c2C)c1
3970
COc1ccc(NCc2cnc3nc(N)nc(N)c3c2C)c(OC)c1
173

Identify GI50 associated with the compound COc1ccc(NCc2cnc3nc(N)nc(N)c3c2C)c2ccccc12
11.7

====

# System: ACHN
# assay: Cytotoxic activity against ACHN Renal cancer cell line
# Type: functional
# condition-info: Homo sapiens
readout-label: GI50 (nM)
Report the figure in nM without appending any unit label.

COc1ccc(OC)c(N(C)Cc2cnc3nc(N)nc(N)c3c2C)c1
3750

Quote ACHN GI50 for entry COc1cc(OC)cc(N(C)Cc2cnc3nc(N)nc(N)c3c2C)c1 .
816

Quote ACHN GI50 for entry COc1ccc(NCc2cnc3nc(N)nc(N)c3c2C)c(OC)c1 .
2890

Quote ACHN GI50 for entry COc1ccc(NCc2cnc3nc(N)nc(N)c3c2C)c2ccccc12 .
47.9

====

Parameter 'readout' = pIC50; parameter 'system' = Bifunctional dihydrofolate reductase-thymidylate synthase (Toxoplasma gondii).
Recall that pIC50 is obtained by taking minus log10 of the concentration measured in molar.

Before answering, review these 3 worked examples.
COc1ccc(NCc2cnc3nc(N)nc(N)c3c2C)cc1OC
8.06
COc1cc(OC)cc(N(C)Cc2cnc3nc(N)nc(N)c3c2C)c1
7.24
Cc1c(CNc2cccc3ccccc23)cnc2nc(N)nc(N)c12
7.84

Turning now to a further record.
Quote Bifunctional dihydrofolate reductase-thymidylate synthase (Toxoplasma gondii) pIC50 for entry COc1ccc(N(C)Cc2cnc3nc(N)nc(N)c3c2C)c(OC)c1 .
7.42
